system: human platelet aggregation; assay: Inhibition of human platelet aggregation in platelet-rich plasma; type: cell-based; conditions: agonist collagen, human PRP, read-out: IC50, inhibition of primary phase
PROPERTY_NAME: pIC50
Give bare numbers, as −log10 of the molar value.

INPUT: Form: Entry = O=S(=O)(Nc1cccc(Cl)c1)c1ccc2c(c1)CN(S(=O)(=O)NS(=O)(=O)N1CCc3ccc(S(=O)(=O)Nc4cccc(Cl)c4)cc3C1)CC2 [Compound I] | System = human platelet aggregation | pIC50 = ____
OUTPUT: 5.00
